Test system: Escherichia coli
Test Description: Antimicrobial activity against Escherichia coli DH10B expressing pCR2.1 in presence of IPTG
Format: functional
Experimental Setup: K-12 substr. DH10B
Metric Name: MIC (ng/mL)

> print(dat)
                                   compound               tgt  metric.name  unit.of.measurement  numeric.readout
1  CC1COc2c(N3CCN(C)CC3)c(F)cc3c(=O)c(C(=O)O)cn1c23 (centres undefined)  Escherichia coli          MIC                ng/mL                4
2  COc1c(N2CCNC(C)C2)c(F)cc2c(=O)c(C(=O)O)cn(C3CC3)c12 (centres undefined)  Escherichia coli          MIC                ng/mL                4
3  COc1c(N2C[C@@H]3CCCN[C@@H]3C2)c(F)cc2c(=O)c(C(=O)O)cn(C3CC3)c12  Escherichia coli          MIC                ng/mL                4
4  CCn1cc(C(=O)O)c(=O)c2cc(F)c(N3CCNCC3)cc21  Escherichia coli          MIC                ng/mL                8

* * *

Tested on: Escherichia coli
Test Description: Antimicrobial activity against Escherichia coli DH10B expressing pCR2.1 in presence of IPTG
Type: functional
Experimental Setup: K-12 substr. DH10B
Entries and their measured MIC follow.
Metric Name: MIC (µg/mL)

Chemical String	Metric Name	Unit Of Measurement	Qual	Numeric Readout
CCn1cc(C(=O)O)c(=O)c2ccc(C)nc21	MIC	µg/mL	=	2
NC[C@H]1O[C@H](O[C@H]2[C@H](O)[C@@H](O[C@H]3O[C@H](CO)[C@@H](O)[C@H](N)[C@H]3O)[C@H](N)C[C@@H]2N)[C@H](O)[C@@H](O)[C@@H]1O	MIC	µg/mL	≥	256
NCC[C@H](O)C(=O)N[C@@H]1C[C@H](N)[C@@H](O[C@H]2O[C@H](CN)[C@@H](O)[C@H](O)[C@H]2O)[C@H](O)[C@H]1O[C@H]1O[C@H](CO)[C@@H](O)[C@H](N)[C@H]1O	MIC	µg/mL	=	2
NC[C@H]1O[C@H](O[C@H]2[C@H](O)[C@@H](O[C@H]3O[C@H](CO)[C@@H](O)[C@H](N)[C@H]3O)[C@H](N)C[C@@H]2N)[C@H](N)C[C@@H]1O	MIC	µg/mL	=	0.25
C[C@H]1COc2c(N3CCN(C)CC3)c(F)cc3c(=O)c(C(=O)O)cn1c23.C[C@H]1COc2c(N3CCN(C)CC3)c(F)cc3c(=O)c(C(=O)O)cn1c23.O	MIC	µg/mL	=	0.004
